system: K562; test: Antiproliferative activity in human K562 cells after 48 hrs by MTT assay; assay type: functional, cell-based; settings: K562, 48 h
IC50 reference
Measure: IC50 (µM)

>>> df
                  compound_structure_string  measure  output_unit  operator  readout_number
0  CCN(CC)CCOc1ccc2cc1Oc1ccc(cc1)CCc1cccc(OCCN(CC)CC)c1-c1ccc(cc1OCCN(CC)CC)CC2     IC50           µM         =            0.65
1  CC(=O)Nc1cc2cc(c1OC(C)=O)Oc1ccc(cc1)CCc1cccc(OC(C)=O)c1-c1ccc(cc1OC(C)=O)CC2     IC50           µM         >              20
2  c1cc2c(c(OCCCN3CCCC3)c1)-c1ccc(cc1OCCCN1CCCC1)CCc1ccc(OCCCN3CCCC3)c(c1)Oc1ccc(cc1)CC2     IC50           µM         =            2.13
3  COc1ccc(N2CCN(Cc3ccc4c(c3O)-c3ccc(cc3O)CCc3ccc(O)c(c3)Oc3ccc(cc3)CC4)CC2)cc1     IC50           µM         >              20
4  Oc1cc2ccc1-c1c(ccc(CN3CCCCC3)c1O)CCc1ccc(cc1)Oc1cc(cc(CN3CCCCC3)c1O)CC2     IC50           µM         =            0.66
5  Oc1ccc2cc1Oc1ccc(cc1)CCc1ccc(CN3CCCC3)c(O)c1-c1ccc(cc1O)CC2     IC50           µM         =            4.82
6  c1cc2c(c(OCCN3CCCC3)c1)-c1ccc(cc1OCCN1CCCC1)CCc1ccc(OCCN3CCCC3)c(c1)Oc1ccc(cc1)CC2     IC50           µM         =            1.79
